src = patent US12630600B2

# key: entry, value: cAMP production, hGLP-1R EC50 (pM)
biological target: human GLP-1 receptor (human, UniProt P43220); test: cell-based or functional assay
Starred links: 1 amine or outer side, 2 acyl side, 3 side chain; linkers in the order of their positions; H or OH if unused. Non-standard residues stand in square brackets, D forms with d. Groups on a side chain read outwards from the residue. Primed or numbered codes have the meaning given here. No end group written: not given here. *: point of attachment. C20 diacid = O=C(O)CCCCCCCCCCCCCCCCCCC(=O)*; C18 diacid = O=C(O)CCCCCCCCCCCCCCCCC(=O)*; Dip = N[C@H](C(=O)O)C(c1ccccc1)c1ccccc1; γGlu = O=C(O)[C@H](CCC(=O)[*:2])N[*:1]; Stearoyl = CCCCCCCCCCCCCCCCCC(=O)*; Palmitoyl = CCCCCCCCCCCCCCCC(=O)*; αMeF = C[C@](N)(Cc1ccccc1)C(=O)O; (PEG)2 = polyethylene glycol 2; PEG2′ = polyethylene glycol 2; AEEA = NCCOCCOCC(=O)O; Aib = CC(C)(N)C(=O)O
Reply numerically in pM, unit not repeated.

What does the record list as cAMP production, hGLP-1R EC50 (pM) for H[Aib]QGTFTSDVSK[αMeF]LDSK([γGlu-γGlu-AEEA-AEEA-γGlu-γGlu-C20 diacid])RAQDFVRWLLE[Aib]G-OH [Peptide 139] ?
630

New cases:
Which cAMP production, hGLP-1R EC50 (pM) is reported for this binder? HSQGS[αMeF]TSDVSK[Dip]LDSK([(PEG)2-(PEG)2-γGlu-γGlu-Stearoyl])AAQD[αMeF]VQ[Dip]LEA-NH2 [Peptide 55]
18.8

Name the reported cAMP production, hGLP-1R EC50 (pM) value associated with the binder HSQGS[αMeF]TSDVSK[αMeF]LDSK([PEG2′-PEG2′-γGlu-γGlu-Palmitoyl])AAQD[αMeF]VQ[Aib]IAN-NH2 (not fully specified) [Peptide 89]
3.77

Name the recorded cAMP production, hGLP-1R EC50 (pM) for HSQGS[αMeF]TSDVSK[Dip]LDSK([(PEG)2-γGlu-(PEG)2-γGlu-Stearoyl])AAQD[αMeF]VE[Aib]IINT-NH2 [Peptide 61] .
4.12

Field request: cAMP production, hGLP-1R EC50 (pM) | item: H[Aib]QGTFTSDVSK[αMeF]LDSK([AEEA-AEEA-γGlu-C18 diacid])RAQDFVQWLL[Aib]TE-OH (not fully specified) [Peptide 150]
166
